Assay: xn = mol fraction of the nth substance listed
Conditions: 298.15 K; 101 kPa; Liquid; holographic laser-interferometry using flow junction cell; x1 = 0.3
observable: binary diffusion coefficient (m2/s)
Expressed in m2/s, but write only the number.

# annotated cases, reported binary diffusion coefficient shown
[ask] binary diffusion coefficient for CC(C)=O [acetone] + O ?
[reply] 6.3e-10

[ask] binary diffusion coefficient for CC(C)=O [acetone] + CCCCO ?
[reply] 1.13e-09

[ask] binary diffusion coefficient for CC(C)=O [acetone] + CCCO ?
[reply] 1.4e-09

# next compound below
[ask] binary diffusion coefficient for CCCCCl [1-chlorobutane] + CCCO ?
[reply] 1.13e-09

* * *

Assay: xn = mol fraction of the nth substance listed
Conditions: 298.15 K; 101 kPa; Liquid; holographic laser-interferometry using flow junction cell; x1 = 0.7
observable: binary diffusion coefficient (m2/s)
Expressed in m2/s, but write only the number.

[ask] binary diffusion coefficient for CC(C)=O [acetone] + CCCCO ?
[reply] 1.72e-09

[ask] binary diffusion coefficient for CCCCCl [1-chlorobutane] + CCCO ?
[reply] 1.14e-09

[ask] binary diffusion coefficient for CC(C)=O [acetone] + CCCO ?
[reply] 1.98e-09

# next molecule below
[ask] binary diffusion coefficient for CC(C)=O [acetone] + O ?
[reply] 1.63e-09

* * *

Test: xn = mol fraction of the nth substance listed
Conditions: 298.15 K; 101 kPa; Liquid; holographic laser-interferometry using flow junction cell; x1 = 0.5
Form field: binary diffusion coefficient (one value per entry).
Expressed in m2/s, but write only the number.

[ask] binary diffusion coefficient for CC(C)=O [acetone] + CCCO ?
[reply] 1.64e-09

[ask] binary diffusion coefficient for CC(C)=O [acetone] + CCCCO ?
[reply] 1.38e-09

[ask] binary diffusion coefficient for CC(C)=O [acetone] + O ?
[reply] 8.3e-10

# next compound below
[ask] binary diffusion coefficient for CCCCCl [1-chlorobutane] + CCCO ?
[reply] 1.09e-09

* * *

Assay: xn = mol fraction of the nth substance listed
Settings: 298.15 K; 101 kPa; Liquid; holographic laser-interferometry using flow junction cell; x1 = 0.1
observable: binary diffusion coefficient (m2/s)
Expressed in m2/s, but write only the number.

[ask] binary diffusion coefficient for CC(C)=O [acetone] + CCCCO ?
[reply] 1e-09

[ask] binary diffusion coefficient for CCCO [propan-1-ol] + O ?
[reply] 1.7e-10

[ask] binary diffusion coefficient for CC(C)=O [acetone] + CCCO ?
[reply] 1.22e-09

[ask] binary diffusion coefficient for CCCCCl [1-chlorobutane] + CCCO ?
[reply] 1.18e-09

# next compound below
[ask] binary diffusion coefficient for CC(C)=O [acetone] + O ?
[reply] 8e-10

* * *

Assay: xn = mol fraction of the nth substance listed
Conditions: 298.15 K; 101 kPa; Liquid; holographic laser-interferometry using flow junction cell; x1 = 0.9
observable: binary diffusion coefficient (m2/s)
Expressed in m2/s, but write only the number.

[ask] binary diffusion coefficient for CC(C)=O [acetone] + O ?
[reply] 3.44e-09

[ask] binary diffusion coefficient for CCCCCl [1-chlorobutane] + CCCO ?
[reply] 1.45e-09

[ask] binary diffusion coefficient for CCCO [propan-1-ol] + O ?
[reply] 5.3e-10

---
[ask] binary diffusion coefficient for CC(C)=O [acetone] + CCCO ?
[reply] 2.67e-09

[ask] binary diffusion coefficient for CC(C)=O [acetone] + CCCCO ?
[reply] 2.43e-09
